Species on record: Mus musculus
protocolText: Skin irritant activity in SIM mouse ear assessed as irritation unit per ear after 24 hrs
Format: ADME, organism-based
conditionSet: in vivo
// Activity lookup, one value per entry

GET /values?readout=Activity&item= C/C=C(\C)C(=O)O[C@@H]1[C@@H]2[C@H]([C@H](OC(C)=O)[C@H](OC(C)=O)/C(C)=C/[C@@]34O[C@@]3(C[C@H](C)[C@@H]4OC(C)=O)C(=O)[C@@H]1C)C2(C)C
> 1000 µg

Entry C/C=C(\C)C(=O)O[C@@H]1[C@@H]2[C@H]([C@H](OC(=O)/C(C)=C/C)[C@H](OC(C)=O)/C(C)=C/[C@@]34O[C@@]3(C[C@H](C)[C@@H]4O)C(=O)[C@@H]1C)C2(C)C : reported Activity = ?
> 1000 µg

// returns reported Activity for input CCCCCCCCCCCCCC(=O)O[C@@H]1[C@@H](C)[C@@]2(O)[C@@H](C=C(CO)C[C@]3(O)C(=O)C(C)=C[C@@H]23)[C@@H]2C(C)(C)[C@]12OC(C)=O [PHORBOL MYRISTATE ACETATE]
0.05 µg

Which Activity value is on record for C/C=C(\C)C(=O)O[C@@H]1[C@@H]2[C@H]([C@H](OC(=O)/C(C)=C/C)[C@H](OC(C)=O)/C(C)=C/[C@@]34O[C@@]3(C[C@H](C)[C@@H]4OC(C)=O)C(=O)[C@@H]1C)C2(C)C ?
> 1000 µg

Need Activity of C/C=C(\C)C(=O)O[C@H]1[C@H]2[C@@H]([C@@H](O)[C@@H](C)C(=O)[C@@]34C[C@H](C)[C@H](OC(C)=O)[C@]3(/C=C(\C)[C@H]1OC(=O)C(C)CC)O4)C2(C)C (some centres not stated) , thanks.
> 1000 µg

Any idea what Activity was measured for CC(=O)O[C@@]12C[C@@H](C)[C@@]3(O)[C@@H](C=C(CO)C[C@]4(O)C(=O)C(C)=C[C@@H]34)[C@@H]1C2(C)C ?
> 7 nmol

Which measured Activity value corresponds to C/C=C(\C)C(=O)O[C@@H]1[C@@H]2[C@H]([C@H](OC(=O)C(C)CC)[C@H](OC(C)=O)/C(C)=C/[C@@]34O[C@@]3(C[C@H](C)[C@@H]4OC(C)=O)C(=O)[C@@H]1C)C2(C)C (some centres not stated) ?
> 1000 µg
